Recorded values, source patent US20250353816A1.

- target_or_test_system: POLRMT (Homo sapiens (Human))
- Sequence (O00411 42-1230): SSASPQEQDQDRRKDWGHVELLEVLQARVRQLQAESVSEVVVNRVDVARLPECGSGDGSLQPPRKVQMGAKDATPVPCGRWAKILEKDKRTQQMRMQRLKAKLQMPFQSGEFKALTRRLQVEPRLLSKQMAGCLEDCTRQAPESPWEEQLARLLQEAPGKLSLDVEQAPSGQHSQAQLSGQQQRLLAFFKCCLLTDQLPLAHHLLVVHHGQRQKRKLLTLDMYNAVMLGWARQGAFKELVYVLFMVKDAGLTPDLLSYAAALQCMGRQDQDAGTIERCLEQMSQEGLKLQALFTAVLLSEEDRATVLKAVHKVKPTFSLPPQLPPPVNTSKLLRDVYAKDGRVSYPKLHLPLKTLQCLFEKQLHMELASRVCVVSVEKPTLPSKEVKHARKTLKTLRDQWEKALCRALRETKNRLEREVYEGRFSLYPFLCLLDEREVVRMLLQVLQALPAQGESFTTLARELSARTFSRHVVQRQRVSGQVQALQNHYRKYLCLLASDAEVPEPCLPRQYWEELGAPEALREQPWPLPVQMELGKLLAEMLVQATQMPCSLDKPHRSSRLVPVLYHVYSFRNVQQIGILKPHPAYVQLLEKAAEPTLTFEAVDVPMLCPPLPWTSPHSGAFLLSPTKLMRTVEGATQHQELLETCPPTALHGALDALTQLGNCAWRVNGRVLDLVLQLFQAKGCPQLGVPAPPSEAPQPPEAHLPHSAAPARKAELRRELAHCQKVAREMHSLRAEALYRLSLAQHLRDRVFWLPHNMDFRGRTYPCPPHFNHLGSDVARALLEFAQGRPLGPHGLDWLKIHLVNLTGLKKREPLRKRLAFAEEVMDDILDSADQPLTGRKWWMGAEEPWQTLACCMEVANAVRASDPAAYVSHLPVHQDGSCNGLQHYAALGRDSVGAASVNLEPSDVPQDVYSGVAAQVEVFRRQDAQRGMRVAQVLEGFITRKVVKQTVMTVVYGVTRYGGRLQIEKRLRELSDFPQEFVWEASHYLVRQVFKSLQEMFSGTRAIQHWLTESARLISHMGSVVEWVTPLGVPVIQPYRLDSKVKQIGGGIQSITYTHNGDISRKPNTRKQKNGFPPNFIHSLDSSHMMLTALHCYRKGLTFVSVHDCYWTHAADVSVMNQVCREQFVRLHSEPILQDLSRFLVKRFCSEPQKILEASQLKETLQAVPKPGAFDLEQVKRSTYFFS
- test_details: homogeneous TR-FRET assay of mitochondrial transcription (inhibition of POLRMT)
- Assay type: biochemical
- condition_parameters: 7.5 nM POLRMT, 15 nM TFB2M, 30 nM TFAM, 60 minutes at 37° C.
IC50 listing for selected compounds.
measured_quantity: IC50 (µM)

[
  {
    "compound": "Cc1ccccc1-c1ccnc2cc(C(N)=O)ccc12 [Example 2, 4-(o-tolyl)quinoline-7-carboxamide]",
    "readout_relation": ">",
    "value_observed": 100
  },
  {
    "compound": "Cc1ccccc1-c1ccnc2cc(NC(C)C(=O)N3CCCCC3)ccc12 (single isomer, unassigned) [Example 53]",
    "readout_relation": "=",
    "value_observed": 3
  },
  {
    "compound": "Cc1ccccc1-c1ccnc2cc(NC(C)C(=O)N3CCOCC3)ccc12 (single isomer, unassigned) [Example 51]",
    "readout_relation": ">",
    "value_observed": 100
  },
  {
    "compound": "Cc1ccccc1-c1ccnc2cc(CCO)ccc12 [Example 17, 2-(4-(o-tolyl)quinolin-7-yl)ethan-1-ol]",
    "readout_relation": "=",
    "value_observed": 10
  },
  {
    "compound": "Cc1ccccc1-c1ccnc2cc(NC(C)C(=O)N3CCOCC3)ccc12 (centres unmarked) [Example 46]",
    "readout_relation": "=",
    "value_observed": 8
  },
  {
    "compound": "Cc1ccccc1-c1ccnc2cc(CNC(=O)C3CCCC3)ccc12 [Example 13]",
    "readout_relation": "=",
    "value_observed": 29
  },
  {
    "compound": "Cc1ccccc1-c1ccnc2cc(CNC(=O)OC(C)(C)C)ccc12 [Example 12]",
    "readout_relation": "=",
    "value_observed": 15
  },
  {
    "compound": "Cc1ccccc1-c1ccnc2cc(C#N)ccc12 [Example 33, 4-(o-tolyl)quinoline-7-carbonitrile]",
    "readout_relation": "=",
    "value_observed": 74
  }
]
